meta.source: the RNAGym collection of RNA variant scans (doi:10.1093/nar/gkz1192)

B1: CPEB3 Ribozyme (parent)
chain: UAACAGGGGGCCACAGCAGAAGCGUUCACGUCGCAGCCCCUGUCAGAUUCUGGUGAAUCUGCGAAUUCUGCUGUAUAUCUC

# Variants of: B1
# measurementProtocol: self-cleavage, relative activity (ratio to wild type); higher = more cleavage; in vitro, sequencing
quantityName: self-cleavage

Record excerpt, results attached:
orderedResidues	self-cleavage
UAACAGGGGGCCACAGCAGAAACGUUCACGUCGCAGCCCCUGUCAGAUUCUGGUGAAUCUGCGAAUUCUGCUGUAUAUCCC [G22A U80C]	0.5
UAACAGGGGGCCACAGCAGAAGCGUUCACGUCGCAGUCCCUGUCAGAUUCUGGUGAAUCUGCGAAUUCUGCUGUAUACCUC [C37U U78C]	0.56
UAACAGGGGGCCACAGCAGAAGCGUUCACGUCGCAGCCCCUGUCAGCUUCUGGUGAAUCUGCGAAUUCUGUUGUAUAUCUC [A47C C71U]	0.13
UAACAGGGGGCCACCGCAGAAGCGUUCACGUCGCAGCCCCUGUCCGAUUCUGGUGAAUCUGCGAAUUCUGCUGUAUAUCUC [A15C A45C]	0.37

(Q) Dear colleague, please send me the reported self-cleavage for UAACAGGGGGCCACAGCAGAAGCGUUCACGUCGCAGCCCCUGUCAGAUUCUGGUGAAUCUGCGAAUUCUGCUCUAUAGCUC [G73C U78G] when you can.
(A) 1.23

(Q) Quick one: give measured self-cleavage for UAACAGGGGGCCACAGCAGUAGCGUACACGUCGCAGCCCCUGUCAGAUUCUGGUGAAUCUGCGAAUUCUGCUGUAUAUCUC [A20U U26A]
(A) 0.34

(Q) Retrieve self-cleavage measured for UAACAGGGGGCCACAGCAGAAGCGUUCACGUCGCAGCCCCCGUCAGAUUCUGGUGAAUCUGAGAAUUCUGCUGUAUAUCUC [U41C C62A] and print it.
(A) 0.19

(Q) // Input: UAACAGGGGGCCACAGCAGAAGCGUUCACGUCGCAGCCCCUGUCAGAUUCUGGUGAAUCUGCGAAUUCUAGUGUAUAUCUC [G70A C71G] . Output its self-cleavage only.
(A) 0.23
